Experimental Endpoint: melting point

Field: example entries. Status: answers known.
>>> print(df.to_string())
                                   compound  experimental_endpoint  reported_result
0  O=C(NCc1ccc(F)c(F)c1)c1ccnc(N2CCN(CC3CC3)C2=O)c1          melting point    134 to 136 °C
1  CC(=O)SCC1(CSC(C)=O)C(=O)N2CCCC(C(=O)OC(C)(C)C)N2C1=O (centres undefined)          melting point      85 to 86 °C
2      CC(=O)c1ccc2c(c1)CCCN2C(=O)OC(C)(C)C          melting point      80 to 82 °C
3            CC(C)(CCl)C(=O)N(O)Cc1ccccc1Cl          melting point    108 to 110 °C

Next item in the queue.
Give the measured melting point of COc1ccc(N2C(=O)[C@@H](CCCc3ccccc3)[C@@H]2c2ccc(N3CCN(Cc4ccccc4)CC3)cc2)cc1 (relative stereo) .
139 to 140 °C

* * *

Property: melting point; scope: individual compounds

>>> df
                                   compound  reported_result
0  O=C1C(=Cc2ccc(Cl)cc2)C(c2ccc(Cl)cc2)Oc2ccc(O)cc21 (stereo not given)    228 to 230 °C
1  CN1C(=O)C2(C(=O)N(Cc3ccccn3)c3ccccc32)c2cc3c(cc21)OCCO3 (stereo not given)      87 to 89 °C
2  CC(C)(C)OC(=O)N[C@@H]1C(=O)N2C(C(=O)OC(C)(C)C)=C(C=O)CC[C@H]12    194 to 195 °C
3             COc1cccc2c1cc(C=O)n2Cc1ccccc1    130 to 131 °C
4  Cc1cc(-n2cnn(Cc3ccc(F)cc3)c2=O)sc1C(=O)NCc1ncco1    163 to 165 °C
5  CCN1c2ncccc2C(=O)Nc2c(C)cc(NCCn3cc[nH]c3=O)nc21         > 300 °C
6  CN1CC[C@]2(c3ccccc3)CCCC[C@H]2C1 (relative stereo)      72 to 73 °C
7                     COC(=O)c1sc(C)c(O)c1O    116 to 117 °C

Give the measured melting point of CN(C)C(=O)C(C#N)=Cc1cc(O)c(O)c([N+](=O)[O-])c1 .
183 to 185 °C

Give the measured melting point of COc1cc(C=O)c(C)c(OC)c1 .
63.4 to 65.1 °C

* * *

Property: melting point; scope: individual molecules

>>> print(df.to_string())
                                   molecule  experimental_endpoint  reported_result
0  COC(=O)c1ccc(Cc2cccc3ccc(C(=O)O)cc23)c(OC)c1          melting point    229 to 230 °C
1  CC1(Cn2nc(Cc3ccc(Cl)cc3)oc2=O)Cn2cc([N+](=O)[O-])nc2O1 (stereo not given)          melting point    151 to 153 °C

Give the measured melting point of O=C(O)c1ccccc1C(=O)OCC1CN(C(=O)Oc2ccccc2)CCC1c1ccc(F)cc1 (stereo not given) .
149 to 151 °C

Give the measured melting point of N#Cc1cc(OCF)cc([N+](=O)[O-])c1Cl .
27 to 28 °C

Give the measured melting point of CCOC(=O)c1c(O)c2cc(F)ccc2n(C)c1=O .
131 °C

Give the measured melting point of Cc1nc2c(c3c1[nH]c1cccc(F)c13)C(=O)CC(C)(C)C2 .
246 to 247 °C

Give the measured melting point of O=C(Nc1cnns1)c1ccccc1 .
267 °C

Give the measured melting point of Nc1nc2c(sc(=O)n2C2OC(CO)C(O)C2F)c(=O)[nH]1 (stereo not given) .
232 to 234 °C

Give the measured melting point of CCOc1cc2ncc(C#N)c(Nc3cccc(Br)c3)c2cc1OCC .
173 to 175 °C

Give the measured melting point of COC(=O)[C@H](Cc1ccc(OCCN2CCC(O)(c3ccccc3)CC2)cc1)NC(=O)[C@@H]1CCCN1S(=O)(=O)c1ccc(C)cc1 .
122 to 123 °C

* * *

Experimental Endpoint: melting point (°C)

Field: example entries. Status: answers known.
>>> print(df.to_string())
                                   compound  experimental_endpoint  reported_result
0  CC1(C)c2ccccc2-c2ccc(C3c4ccc(-c5ccc(-c6ccc(C=C(C#N)C(=O)O)s6)s5)c5c4C(CCC5)N3c3ccccc3)cc21 (centres undefined)          melting point              251
1  CS(=O)c1ccc(C(=O)Cc2ccccc2)cc1 (centres undefined)          melting point              104

P: CCCCOc1ccc(S(=O)(=O)C2(C(=O)OCC)CCN(Cc3ccc(Cl)c(Cl)c3)CC2)cc1
Q: CC(C)C(=O)N[C@H]1CC[C@H](CCN2CCN(c3nccc4c3OCC4)CC2)CC1
Task for the reader: decide whether P or Q has the larger melting point. I would appreciate it if you answered with the label of your choice.
Q
(Q: 204 °C, P: 86 °C)

* * *

Experimental Endpoint: melting point

>>> print(df.to_string())
                                   molecule  experimental_endpoint  reported_result
0         Cn1c(C=O)c(-c2ccc(F)cc2)c2ccccc21          melting point      75 to 79 °C
1  NC(=O)CCC1CN(c2ccc(C3=CCN(C=O)CC3)c(F)c2)C(=O)O1 (stereo unspecified)          melting point    148 to 151 °C
2         CSc1nccc(C(=O)C(=O)c2ccc(F)cc2)n1          melting point      74 to 76 °C
3               O=C(O)CCCC(=O)NCC1(S)CCCCC1          melting point      73 to 74 °C
4          CCCCS(=O)(=O)c1cn(C)c2ccccc2c1=O          melting point    107 to 108 °C
5  CC(C)(C)OC(=O)N1CCN(c2[nH]nc(-c3ccc(Cl)cc3)c2-c2ccncc2)CC1          melting point    204 to 205 °C
6  CNC(=S)NS(=O)(=O)c1cc(CCNC(=O)c2cc(Cl)ccc2OC)ccc1-c1cccs1          melting point    189 to 191 °C
7      CN(C)CCCn1c(-c2ccc(Br)cc2)cc2c1CCSC2          melting point      88 to 90 °C
8              Cc1ccnc(-c2nc3ccccc3[nH]2)c1          melting point    228 to 229 °C
9  CCOC(=O)N1CCC(=C2c3ccccc3CCc3cccnc32)CC1          melting point    106 to 107 °C

Next item in the queue.
Give the measured melting point of O=C(N1CCC(c2ccncc2)CC1)N1CCN(S(=O)(=O)c2ccc(Cl)cc2)CC1 .
234 to 235 °C

* * *

Experimental Endpoint: melting point

>>> print(df.to_string())
                                   compound  reported_result
0  O=C(Nc1cccc2cnccc12)NC1CC2(CCOCC2)Oc2ccccc21 (stereo not given)           220 °C
1  Cc1c(-c2ccccc2)c(N2CC[C@H](N(C)C)C2)c2oc(C(C)(C)F)nc2c1C#N    130 to 132 °C
2                   COc1cc(C=O)cc2c1OCCC2=O           139 °C
3  COc1ccc(C(=O)CCCCCN2CCC(CNC(=O)c3cc(Cl)c(N)cc3OC)CC2)cc1OC    102 to 105 °C
4  O=C(CN1CCN(c2nccs2)CC1)N1CCC(O)(c2cccc(C(F)(F)F)c2)CC1    157 to 158 °C

Give the measured melting point of COc1cccc(CNC(=O)c2nc3scc(-c4ccccc4)c3c(=O)[nH]2)c1 .
177 to 178 °C

Give the measured melting point of CCCC(=O)c1c[nH]c2c(OC)nccc2c1=O .
206 to 207 °C

Give the measured melting point of Cc1cc(C=Cc2ccccc2OCC2CO2)on1 (stereo not given) .
99 to 100 °C

Give the measured melting point of Cc1nc(CC(=O)NCc2cccc3c2C(=O)N(C2CCC(=O)NC2=O)C3=O)c(C)s1 (stereo not given) .
140 to 142 °C

Give the measured melting point of O=C(CC1CCCCC1)Nc1c(Cl)ccc2nc(N3CC[C@H](NCCc4nn[nH]n4)C3)ccc12 .
220 to 221 °C

Give the measured melting point of COc1cccc(Cc2cnc(N)nc2N)c1 .
221 to 223 °C

Give the measured melting point of COc1cc(C(=O)C(=O)c2ccccc2)c(OC)cc1C(=O)C(=O)c1ccccc1 .
209 to 211 °C

Give the measured melting point of COC(=O)CCC(=O)c1cc2c(cc1Cl)CC(NC(=O)OC)CC2 (stereo not given) .
86 to 89 °C

Give the measured melting point of C1=C(c2ccccc2)CCN(CCCCc2cnc3ccccc3c2)C1 .
92.8 to 93.9 °C

Give the measured melting point of CC12CCCc3c1n(c1ccccc31)C(=O)CC2 (stereo not given) .
93 to 95 °C

Give the measured melting point of O=S1(=O)c2sccc2C(O)CN1Cc1ccncc1 (stereo not given) .
183 to 185 °C

Give the measured melting point of COc1cc(C(=O)NC2CCN(C(=O)CN(C)C)CC2)ccc1Nc1ncc2c(n1)N(C1CCCCC1)CC(F)(F)C(=O)N2C .
190 to 191 °C

Give the measured melting point of C[C@H]1CCCC(C)(C)[C@@H]1C(=O)c1ccc(C#N)c(F)c1 .
53 to 56 °C

Give the measured melting point of CCN1Cc2ccccc2P1(=O)c1ccccc1 (stereo not given) .
94 to 95 °C

Give the measured melting point of O=C(NO)c1ccc(CNC(=O)c2[nH]c(-c3ccoc3)cc2-c2ccc(O)cc2)cc1 .
159 to 160 °C
